Answer each item with its documented IC50.
- subject_of_test: c-Src (Homo sapiens, UniProt P12931)
- Sequence (P12931 whole entry): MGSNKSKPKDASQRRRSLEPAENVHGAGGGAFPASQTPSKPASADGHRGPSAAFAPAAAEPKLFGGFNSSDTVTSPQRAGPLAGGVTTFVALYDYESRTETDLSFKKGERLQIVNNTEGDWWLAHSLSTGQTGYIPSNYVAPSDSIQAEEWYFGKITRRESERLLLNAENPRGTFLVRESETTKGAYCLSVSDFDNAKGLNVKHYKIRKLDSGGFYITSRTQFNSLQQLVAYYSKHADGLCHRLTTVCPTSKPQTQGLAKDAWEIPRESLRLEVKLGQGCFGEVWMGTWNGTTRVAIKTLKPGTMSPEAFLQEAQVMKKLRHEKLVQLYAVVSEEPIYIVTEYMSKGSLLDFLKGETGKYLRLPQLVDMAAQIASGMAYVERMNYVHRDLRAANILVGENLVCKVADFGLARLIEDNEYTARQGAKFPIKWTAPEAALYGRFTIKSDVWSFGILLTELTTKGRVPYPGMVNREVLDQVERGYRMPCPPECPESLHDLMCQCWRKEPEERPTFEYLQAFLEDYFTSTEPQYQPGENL
- experiment: IC50 inhibitory activity against c-Src kinase
- Assay type: biochemical
- study_conditions: read-out: c-Src IC50
Square brackets hold non-standard residues; d marks the D form. Peptide text beside a SMILES is read from it. * marks the point of attachment. X1 = Cc1ccc(Nc2ncc3c(n2)N(C)C(=O)N(c2cc(C(=O)*)ccc2C)C3)cn1; Pip = O=C(O)[C@@H]1CCCCN1; Aib = CC(C)(N)C(=O)O

*Q* What measured IC50 goes with C=CCCC1=N[C@@H](CC(=O)Nc2ccc(C)c(N3Cc4cnc(Nc5ccc(C)nc5)nc4N(C)C3=O)c2)C(=O)Nc2ccccc21 ?
*A* 0.001 to 0.2 µM

*Q* Moving on to Cc1ccc(Nc2ncc3c(n2)N(C)C(=O)N(c2cc(NC(=O)c4ccc5c(c4)N(C)C(=O)[C@H](CC(C)C)N=C5c4ccccc4)ccc2C)C3)cn1
*A* 0.001 to 0.2 µM

*Q* Moving on to Cc1ccc(Nc2ncc3c(n2)N(C)C(=O)N(c2cc(NC(=O)c4ccc5c(c4)N(Cc4ccccc4)C(=O)[C@H](C)N=C5c4ccccc4)ccc2C)C3)cn1
*A* 0.001 to 0.2 µM

*Q* Moving on to Cc1ccc(Nc2ncc3c(n2)N(C)C(=O)N(c2cc(C(=O)N[C@H](C(=O)N4CCCC[C@H]4C(=O)NC(C)(C)C(=O)N[C@@H](CC(C)C)C(=O)N(C)C)C(C)C)ccc2C)C3)cn1 [Example 13] (X1-V[Pip][Aib]L-NMe2)
*A* 0.4 to 0.6 µM

*Q* Moving on to CC[C@@H](C)[C@H]1N=C(c2ccccc2)c2ccc(C(=O)Nc3ccc(C)c(N4Cc5cnc(Nc6ccc(C)nc6)nc5N(C)C4=O)c3)cc2NC1=O
*A* 0.001 to 0.2 µM

---

- subject_of_test: c-Src (Homo sapiens)
- experiment: IC50 inhibitory activity against c-Src kinase
- Type: biochemical
Square brackets hold non-standard residues; d marks the D form. Peptide text beside a SMILES is read from it. * marks the point of attachment. X1 = Cc1ccc(Nc2ncc3c(n2)N(C)C(=O)N(c2cc(C(=O)*)ccc2C)C3)cn1; Ac3c = NC1(C(=O)O)CC1; Aib = CC(C)(N)C(=O)O
Answer each item with its documented IC50.

*Q* What measured IC50 goes with Cc1ccc(Nc2ncc3c(n2)N(C)C(=O)N(c2cc(C(=O)N[C@H](C(=O)N4CCC[C@@H]4C(=O)NC(C)(C)C(=O)N[C@@H](CC(C)C)C(=O)N(C)C)C(C)C)ccc2C)C3)cn1 [Example 2] (X1-V[dP][Aib]L-NMe2) ?
*A* 200 to 400 nM

*Q* Moving on to Cc1ccc(Nc2ncc3c(n2)N(C)C(=O)N(c2cc(C(=O)N[C@H](C(=O)N4CCC[C@@H]4C(=O)NC4(C(=O)N[C@@H](CC(C)C)C(=O)N(C)C)CC4)C(C)C)ccc2C)C3)cn1 [Example 3] (X1-V[dP][Ac3c]L-NMe2)
*A* > 600 nM

---

- subject_of_test: LCK (Homo sapiens, UniProt P06239)
- Sequence (P06239 whole entry): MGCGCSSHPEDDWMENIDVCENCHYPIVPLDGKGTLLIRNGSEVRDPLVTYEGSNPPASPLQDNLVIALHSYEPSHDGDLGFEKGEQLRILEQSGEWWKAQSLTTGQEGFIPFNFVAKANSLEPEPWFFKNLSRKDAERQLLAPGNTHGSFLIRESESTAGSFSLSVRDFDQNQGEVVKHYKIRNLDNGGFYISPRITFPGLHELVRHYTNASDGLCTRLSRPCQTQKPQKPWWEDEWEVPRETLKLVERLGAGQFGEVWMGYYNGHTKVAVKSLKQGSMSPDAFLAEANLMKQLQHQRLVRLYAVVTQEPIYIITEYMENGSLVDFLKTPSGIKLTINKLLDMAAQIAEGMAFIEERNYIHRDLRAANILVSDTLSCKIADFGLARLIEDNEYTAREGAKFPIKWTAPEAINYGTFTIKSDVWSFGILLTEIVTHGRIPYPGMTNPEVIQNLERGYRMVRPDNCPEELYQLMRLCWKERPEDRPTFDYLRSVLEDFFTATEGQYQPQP
- experiment: IC50 inhibitory activity against LCK kinase
- Type: biochemical
- study_conditions: read-out: LCK IC50
Square brackets hold non-standard residues; d marks the D form. Peptide text beside a SMILES is read from it. * marks the point of attachment. X1 = Cc1ccc(Nc2ncc3c(n2)N(C)C(=O)N(c2cc(C(=O)*)ccc2C)C3)cn1; Aib = CC(C)(N)C(=O)O
measured_property: IC50

*Q* What value of IC50 on LCK (Homo sapiens, UniProt P06239) does Cc1ccc(Nc2ncc3c(n2)N(C)C(=O)N(c2cc(C(=O)N4C[C@@H](C(=O)NCc5ccccc5)[C@H](C(=O)NCc5ccc(Cl)cc5)C4)ccc2C)C3)cn1 [Example 47] have?
*A* 1 to 200 nM

*Q* Moving on to C=CCCC1=N[C@@H](CC(=O)Nc2ccc(C)c(N3Cc4cnc(Nc5ccc(C)nc5)nc4N(C)C3=O)c2)C(=O)Nc2ccccc21 [Example 44]
*A* 1 to 200 nM

*Q* Moving on to Cc1ccc(Nc2ncc3c(n2)N(C)C(=O)N(c2cc(C(=O)N[C@@H](Cc4ccccc4)C(=O)N4CCC[C@@H]4C(=O)N[C@H](C(=O)N[C@H](C)c4ccccc4)C(C)C)ccc2C)C3)cn1 [Example 7]
*A* 1 to 200 nM

*Q* Moving on to Cc1ccc(Nc2ncc3c(n2)N(C)C(=O)N(c2cc(C(=O)N[C@H](C(=O)N4CCC[C@H]4C(=O)NC(C)(C)C(=O)N[C@H](C(=O)N(C)C)C(C)C)C(C)C)ccc2C)C3)cn1 [Example 22] (X1-VP[Aib]V-NMe2)
*A* > 600 nM

*Q* Moving on to COCCN1C(=O)[C@H](CC(C)C)N=C(c2ccccc2)c2ccc(C(=O)Nc3ccc(C)c(N4Cc5cnc(Nc6ccc(C)nc6)nc5N(C)C4=O)c3)cc21 [Example 42]
*A* 1 to 200 nM

---

- subject_of_test: c-Src (Homo sapiens)
- experiment: IC50 inhibitory activity against c-Src kinase
- Assay type: biochemical
- study_conditions: read-out: c-Src IC50
Square brackets hold non-standard residues; d marks the D form. Peptide text beside a SMILES is read from it. * marks the point of attachment. X1 = Cc1ccc(Nc2ncc3c(n2)N(C)C(=O)N(c2cc(C(=O)*)ccc2C)C3)cn1; Aib = CC(C)(N)C(=O)O
measured_property: IC50

*Q* What measured IC50 goes with CC1=N[C@@H](CC(C)C)C(=O)N(C)c2cc(C(=O)Nc3ccc(C)c(N4Cc5cnc(Nc6ccc(C)nc6)nc5N(C)C4=O)c3)ccc21 [Example 40] ?
*A* 1 to 200 nM

*Q* Moving on to Cc1ccc(Nc2ncc3c(n2)N(C)C(=O)N(c2cc(NC(=O)c4ccc5c(c4)N(CC(=O)NCc4ccccc4)C(=O)[C@H](CC(C)C)N=C5c4ccccc4)ccc2C)C3)cn1 [Example 43]
*A* 1 to 200 nM

*Q* Moving on to Cc1ccc(Nc2ncc3c(n2)N(C)C(=O)N(c2cc(C(=O)N[C@@H](C)C(=O)N4CCC[C@H]4C(=O)NC(C)(C)C(=O)N[C@@H](CC(C)C)C(=O)N(C)C)ccc2C)C3)cn1 [Example 17] (X1-AP[Aib]L-NMe2)
*A* 200 to 400 nM

---

Answer each item with its documented IC50.
- subject_of_test: p38a/MAPK14 (Homo sapiens, UniProt Q16539)
- Sequence (Q16539 whole entry): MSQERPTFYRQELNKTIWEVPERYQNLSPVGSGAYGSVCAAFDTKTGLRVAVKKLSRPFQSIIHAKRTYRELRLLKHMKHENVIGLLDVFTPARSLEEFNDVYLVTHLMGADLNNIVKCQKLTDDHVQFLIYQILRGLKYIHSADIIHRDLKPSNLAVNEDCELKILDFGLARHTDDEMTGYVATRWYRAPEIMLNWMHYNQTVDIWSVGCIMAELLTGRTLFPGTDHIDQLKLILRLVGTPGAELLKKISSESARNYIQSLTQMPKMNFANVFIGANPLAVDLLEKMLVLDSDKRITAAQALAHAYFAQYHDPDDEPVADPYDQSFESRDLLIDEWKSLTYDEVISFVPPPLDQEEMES
- experiment: IC50 inhibitory activity against p38a/MAPK14 kinase
- Assay type: biochemical
- study_conditions: read-out: p38a/MAPK14 IC50

*Q* What measured IC50 goes with Cc1ccc(Nc2ncc3c(n2)N(C)C(=O)N(c2cc(C(=O)N4C[C@@H](C(=O)NCCc5c[nH]c6ccccc56)[C@H](C(=O)NCc5ccc(Cl)cc5)C4)ccc2C)C3)cn1 ?
*A* 400 to 600 nM

*Q* Moving on to Cc1ccc(Nc2ncc3c(n2)N(C)C(=O)N(c2cc(NC(=O)c4ccc5c(c4)N(Cc4ccccc4)C(=O)[C@H](C)N=C5c4ccccc4)ccc2C)C3)cn1
*A* 1 to 200 nM

*Q* Moving on to Cc1ccc(Nc2ncc3c(n2)N(C)C(=O)N(c2cc(NC(=O)[C@@H]4CN(C(=O)OCC(Cl)(Cl)Cl)C[C@H]4C(=O)NCc4ccc(Cl)cc4)ccc2C)C3)cn1
*A* 1 to 200 nM

*Q* Moving on to Cc1ccc(Nc2ncc3c(n2)N(C)C(=O)N(c2cc(NC(=O)c4ccc5c(c4)NC(=O)[C@H](C)N=C5c4ccccc4)ccc2C)C3)cn1
*A* 1 to 200 nM

*Q* Moving on to CC[C@@H](C)[C@H]1N=C(c2ccccc2)c2ccc(C(=O)Nc3ccc(C)c(N4Cc5cnc(Nc6ccc(C)nc6)nc5N(C)C4=O)c3)cc2NC1=O
*A* 200 to 400 nM

*Q* Moving on to Cc1ccc(Nc2ncc3c(n2)N(C)C(=O)N(c2cc(C(=O)N4C[C@@H](C(=O)NCc5ccccc5)[C@H](C(=O)NCc5ccc(Cl)cc5)C4)ccc2C)C3)cn1
*A* 1 to 200 nM

*Q* Moving on to Cc1ccc(Nc2ncc3c(n2)N(C)C(=O)N(c2cc(NC(=O)[C@H](C)NC(=O)c4ccc([N+](=O)[O-])c(OCC(C)C)c4)ccc2C)C3)cn1
*A* > 600 nM

*Q* Moving on to Cc1ccc(Nc2ncc3c(n2)N(C)C(=O)N(c2cc(NC(=O)[C@H](CC(C)C)NC(=O)c4ccc([N+](=O)[O-])c(OCC(C)C)c4)ccc2C)C3)cn1
*A* > 600 nM

*Q* Moving on to Cc1ccc(Nc2ncc3c(n2)N(C)C(=O)N(c2cc(NC(=O)c4ccc5c(c4)NC(=O)[C@H](Cc4ccccc4)N=C5c4ccccc4)ccc2C)C3)cn1
*A* > 600 nM

*Q* Moving on to Cc1ccc(Nc2ncc3c(n2)N(C)C(=O)N(c2cc(NC(=O)c4ccc([N+](=O)[O-])c(OCC(C)C)c4)ccc2C)C3)cn1
*A* 1 to 200 nM

*Q* Moving on to COc1ccc(CCOc2cc(C(=O)Nc3ccc(C)c(N4Cc5cnc(Nc6ccc(C)nc6)nc5N(C)C4=O)c3)ccc2[N+](=O)[O-])cc1
*A* 1 to 200 nM
